target: Human plasma factor Xa (Homo sapiens, UniProt P00742); assay: Ki determination, human plasma factor Xa (N-Benzoyl-Ile-Glu-Gly-Arg-pNA); settings: 50 mM Tris-HCl, pH 7.8, 200 mM NaCl, 0.05% BSA; read-out: Experimentally Determined Ki, Factor Xa
Sequence (P00742 235-488 limits assumed): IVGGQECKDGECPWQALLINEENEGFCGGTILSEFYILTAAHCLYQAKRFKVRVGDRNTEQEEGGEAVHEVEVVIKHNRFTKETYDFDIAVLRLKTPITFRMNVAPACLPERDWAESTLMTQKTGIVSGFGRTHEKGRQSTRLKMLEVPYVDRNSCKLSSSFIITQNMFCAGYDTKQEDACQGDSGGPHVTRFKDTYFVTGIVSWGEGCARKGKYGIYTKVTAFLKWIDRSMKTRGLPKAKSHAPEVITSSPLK
Sequence (P00742 41-179 partner limits assumed): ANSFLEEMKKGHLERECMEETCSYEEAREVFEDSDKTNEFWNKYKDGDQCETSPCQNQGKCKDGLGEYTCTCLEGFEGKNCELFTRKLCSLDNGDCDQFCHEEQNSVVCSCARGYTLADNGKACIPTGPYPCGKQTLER
Label Condition met when Ki is strictly below 3 µM; at or above that, label Condition not met.

*Q* In plain terms, does N=C(N)c1ccc(C(=O)NCc2ccc(OCCCOc3ccc(CNC(=O)c4cccc(C(=N)N)c4)cc3)cc2)cc1 come in under 3 µM for Ki?
*A* Condition met

*Q* In plain terms, does N=C(N)c1ccc2[nH]c(CC(=O)NCc3ccc(OCCCOc4ccc(CNC(=O)Cc5nc6cc(C(=N)N)ccc6[nH]5)cc4)cc3)nc2c1 come in under 3 µM for Ki?
*A* Condition not met

*Q* In plain terms, does N=C(N)c1cccc(C(=O)NCc2ccc(OCCOc3ccc(CNC(=O)c4cccc(C(=N)N)c4)cc3)cc2)c1 come in under 3 µM for Ki?
*A* Condition met

*Q* In plain terms, does N=C(N)c1ccc2[nH]c(CC(=O)NCc3ccc(OCCCCOc4ccc(CNC(=O)Cc5nc6cc(C(=N)N)ccc6[nH]5)cc4)cc3)nc2c1 come in under 3 µM for Ki?
*A* Condition not met

*Q* In plain terms, does N=C(N)c1cccc(S(=O)(=O)NCc2ccc(OCCCCOc3ccc(CNS(=O)(=O)c4cccc(C(=N)N)c4)cc3)cc2)c1 come in under 3 µM for Ki?
*A* Condition met

*Q* In plain terms, does N=C(N)c1ccc(C(=O)NCc2ccc(OCCCOc3ccc(CNS(=O)(=O)c4cccc(C(=N)N)c4)cc3)cc2)cc1 come in under 3 µM for Ki?
*A* Condition not met
